viability, T/C for assorted compounds
System: NCI-H211 complex spheroid viability
TEST_DETAILS: Anticancer human tumor NCI-H211 cell line growth inhibition [LSD1];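 note: luminescent viability read after seven days of drug exposure; 100% = DMSO vehicle control viability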
MEASUREMENT_CONDITIONS: second compound 3.16 µM; first compound 0.3 µM; stronger effect = lower value

| COMPOUND | viability, T/C [%] |
| --- | --- |
| Nc1ccccc1NC(=O)c1ccc(CNC(=O)OCc2cccnc2)cc1 + NC1CC1c1ccc(-c2cccc(O)c2)cc1 | 3.1 |
| CCc1c2c(nc3ccc(O)cc13)-c1cc3c(c(=O)n1C2)COC(=O)[C@]3(O)CC + NC1CC1c1ccc(-c2cccc(O)c2)cc1 | 0.2 |
| O=C(C=Cc1cccc(S(=O)(=O)Nc2ccccc2)c1)NO + NC1CC1c1ccc(-c2cccc(O)c2)cc1 | 4.21 |
| Nc1ccccc1NC(=O)c1ccc(CNC(=O)OCc2cccnc2)cc1 + NC1CCC(NC2CC2c2ccccc2)CC1 | 0.53 |

###

Tested on: NCI-H211 complex spheroid viability
TEST_DETAILS: Anticancer human tumor NCI-H211 cell line growth inhibition [LSD1]; active means viability on the fitted dose curve at most 10% of control; inactive means the rest;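 note: luminescent viability read after seven days of drug exposure; 100% = DMSO vehicle control viability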
MEASUREMENT_CONDITIONS: second compound 1 µM; first compound 0.3 µM
Outcomes: Y (active), N (inactive)

| COMPOUND | TARGET_ENTITY | CLASS_ASSIGNMENT |
| --- | --- | --- |
| Nc1ncn(C2CC(O)C(CO)S2)c(=O)n1 (stereo not given) + NC1CCC(NC2CC2c2ccccc2)CC1 | NCI-H211 complex spheroid viability | Y |
| Nc1ccccc1NC(=O)c1ccc(CNC(=O)OCc2cccnc2)cc1 + NC1CC1c1ccc(-c2cccc(O)c2)cc1 | NCI-H211 complex spheroid viability | Y |
| CCN(c1cc(-c2ccc(CN3CCOCC3)cc2)cc(C(=O)NCc2c(C)cc(C)[nH]c2=O)c1C)C1CCOCC1 + NC1CC1c1ccc(-c2cccc(O)c2)cc1 | NCI-H211 complex spheroid viability | N |
| NS(=O)(=O)OCC1CC(n2ccc3c(NC4CCc5ccccc54)ncnc32)CC1O (stereo not given) + NC1CCC(NC2CC2c2ccccc2)CC1 | NCI-H211 complex spheroid viability | Y |
| CCc1c2c(nc3ccc(O)cc13)-c1cc3c(c(=O)n1C2)COC(=O)[C@]3(O)CC + NC1CCC(NC2CC2c2ccccc2)CC1 | NCI-H211 complex spheroid viability | Y |

###

Tested on: NCI-H211 complex spheroid viability
TEST_DETAILS: Anticancer human tumor NCI-H211 cell line growth inhibition [LSD1]; active = viability on the fitted dose curve at most 10% of control; inactive = the rest;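 note: luminescent viability read after seven days of drug exposure; 100% = DMSO vehicle control viability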
MEASUREMENT_CONDITIONS: second compound 10 µM; first compound 0.001 µM
Outcomes: active, inactive

| MOLECULE | CLASS_ASSIGNMENT |
| --- | --- |
| CC(C)CC(NC(=O)C(Cc1ccccc1)NC(=O)c1cnccn1)B(O)O (stereo not drawn) + NC1CC1c1ccc(-c2cccc(O)c2)cc1 | inactive |
| Cn1ncnc1C1c2n[nH]c(=O)c3cc(F)cc(c23)NC1c1ccc(F)cc1 (stereo not drawn) + NC1CC1c1ccc(-c2cccc(O)c2)cc1 | inactive |
| CC(C)CC(NC(=O)CNC(=O)c1cc(Cl)ccc1Cl)B1OC(=O)CC(CC(=O)O)(C(=O)O)O1 (stereo not drawn) + NC1CCC(NC2CC2c2ccccc2)CC1 | inactive |
| CC(C)CC(NC(=O)C(Cc1ccccc1)NC(=O)c1cnccn1)B(O)O (stereo not drawn) + NC1CCC(NC2CC2c2ccccc2)CC1 | inactive |
| CC[C@@]1(O)C(=O)OCc2c1cc1n(c2=O)Cc2cc3c(CN(C)C)c(O)ccc3nc2-1 + NC1CC1c1ccc(-c2cccc(O)c2)cc1 | inactive |
| CC(C)CC(NC(=O)CNC(=O)c1cc(Cl)ccc1Cl)B1OC(=O)CC(CC(=O)O)(C(=O)O)O1 (stereo not drawn) + NC1CC1c1ccc(-c2cccc(O)c2)cc1 | inactive |
| CC[C@@]1(O)C(=O)OCc2c1cc1n(c2=O)Cc2cc3c(CN(C)C)c(O)ccc3nc2-1 + NC1CCC(NC2CC2c2ccccc2)CC1 | active |
| Cn1ncnc1C1c2n[nH]c(=O)c3cc(F)cc(c23)NC1c1ccc(F)cc1 (stereo not drawn) + NC1CCC(NC2CC2c2ccccc2)CC1 | inactive |
